Preemergence herbicidal rating SETVI: recorded values
System: SETVI (Foxtail, Green)
Assay Comment: Preemergence herbicidal evaluation
Format: in vivo, Setaria viridis
Test Parameters: 0.0156 kg/ha, rated 4-5 weeks after treatment
# answer = number (no unit)

>  <Molecule>
CC(C)N1C(=O)CSC1=Nc1cc(-n2c(=O)cc(C(F)(F)F)n(C)c2=O)c(F)cc1Cl

>  <Preemergence herbicidal rating SETVI>
4.0

$$$$
>  <Molecule>
Cn1c(C(F)(F)F)cc(=O)n(-c2cc(N=C3SCC(=O)N3C3CCC3)c(Cl)cc2F)c1=O

>  <Preemergence herbicidal rating SETVI>
0.0

$$$$
>  <Molecule>
CCN1C(=O)CSC1=Nc1cc(-n2c(=O)cc(C(F)(F)F)n(C)c2=O)c(F)cc1Cl

>  <Preemergence herbicidal rating SETVI>
1.0

$$$$

Sample CCOC(=O)CN1C(=O)C(C(=O)OC(C)(C)C)SC1=Nc1cc(-n2c(=O)cc(C(F)(F)F)n(C)c2=O)c(F)cc1Cl (centres unmarked) ; Preemergence herbicidal rating SETVI observed: 5.0

Sample CCOC(=O)CN1C(=O)C(CC(=O)O)SC1=Nc1cc(N2C(=O)CC(C(F)(F)F)CC2=O)c(F)cc1Cl (centres unmarked) ; Preemergence herbicidal rating SETVI observed: 9.0

These data points were gathered from patent US20020137929A1.
